# Tested on: SF-539 CNS
# assay.info: NCI tumour cell line growth inhibition, 48 h
endpoint.name: GI50

**Q:** Observed GI50 on SF-539 CNS for Oc1c(I)cc(I)cc1CNCCN(Cc1ccccn1)Cc1ccccn1 , please.
**A:** 1.14 µM

**Q:** Now consider Cn1cc(C2=C(Oc3ccccc3)C(=O)NC2=O)c2ccccc21 .
**A:** > 25 µM

**Q:** Next entry: O=C1/C(=C\c2ccc(Cl)cc2)CCOc2c1ccc1ccccc21
**A:** 12.2 µM

Lab note: next compound to report on.
**Q:** Given the entry Cc1c2c(nn1-c1ccc(S/N=C3\SCC(=O)CN3Cc3ccccc3)cc1)-c1ccccc1CC2 , what GI50 was observed with SF-539 CNS?
**A:** 29.5 µM
